target: pooled human IgG
property-name: Enzyme Activity Endpoint Assay (purified): Fc (ng/µL)
Numeric only. Scale: ng/µL

get_value(item= PRT-62 (protein) MANQEIRYSEVTPYHVTSVWTKGVTPPANFTQGEDVFHAPYVANQGWYDITKTFNGKDDLLCGAATAGNMLHWWFDQNKDQIKRYLEEHPEKQKINFNGEQMFDVKEAIDTKNHQLDSKLFEYFKEKAFPYLSTKHLGVFPDHVIDMFINGYRLSLTNHGPTPVKEGSKDPRGGIFDAVFGRGDQSKLLTSRHDFKEKNLKEISDLIKKELTEGKALGLSHTYANVRINHVINLWGADFDSNGNLKAIYVTDSDSNASIGMKKYFVGVNSAGKVAISAKEIKEDNIGAQVLGLFTLSTGQDSWNQTN , readout=Enzyme Activity Endpoint Assay (purified): Fc) returns 94

get_value(item= PRT-236 (protein) MEVVEVWPYGQNPNGKTEILSQTEDSESLQRLRDIEDFQAEKKMQNVVYTKWLDGVDVDDHDFRKIVDGNIAYYATPLLNGRGFYDINKDFNRDSDKCAAAVAANMFHYWLDINRDNVDRFLRQNPEKHGIIELPDGQLKLSDFLNTYESDHGYRDKSKLFDFISNNFNGPVWTDKLLDNYINGYAYNYKYGRTIEDPTKNTSKINFFKEVFNEKILTNNHSIRNQNEFSVLLSEALYTGKAIGLSYGPAGLRHSLGHIISVWGADLDADGNVVAIYVTDSDDKKLTIGDERVGLKRYKISTDDENRLRLTAYEETHNTGGQIRGLWTLDTGKYAWADYFDKTEQTGTDQAEQLEHHHHHH , readout=Enzyme Activity Endpoint Assay (purified): Fc) returns 615

All values here come from patent US20250027068.
